Target: T1, human programmed cell death protein 1 (hPD-1) C93S (aa 24-167) (Homo sapiens, UniProt Q15116, C93S)
T1 construct: made as a fusion with a TEV site and human Fc; the Fc was cut off with TEV protease; source: Expi293F, purified (Protein A, TEV cleavage of Fc, SEC; monomer fractions); not shown: Fc (human), C-terminal, cleaved
T1 sequence (Q15116 24-167 C93S): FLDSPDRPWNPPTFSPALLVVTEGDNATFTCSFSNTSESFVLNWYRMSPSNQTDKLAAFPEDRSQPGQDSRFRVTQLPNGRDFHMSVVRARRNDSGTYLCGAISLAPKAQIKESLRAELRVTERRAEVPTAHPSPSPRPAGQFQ
Assay: SPR; Carterra LSA; Fab from the ammonium sulfate precipitate of the culture supernatant immobilised on a NiHC200M chip; hPD-1 (1-1024 nM) or mPD-1-Fc (4-1024 nM) as analyte, fourfold dilution series, no regeneration; HBS-EP pH 7.4, 25 °C; medians over the spots of a construct, KD = koff/kon
Settings: one partner purified
Could you please mark Criterion met for values of kon below 20000 M⁻¹ s⁻¹ and Criterion not met for values at or above it?

Q. kon under 20000 M⁻¹ s⁻¹? Item: toripalimab Fab H.Y32A (Fab, V domains shown, heavy chain of Sm3 with this change; numbers count from the chain's first residue; as the light chain of Sm3; source: Brevibacillus, culture supernatant (ammonium sulfate precipitate); not shown: 6xHis, C-terminal, kept; 6xHN, C-terminal, kept) VH: QGQLVQSGAEVKKPGASVKVSCKASGYTFTDAEMHWVRQAPIHGLEWIGVIESETGGTAYNQKFKGRVTITADKSTSTAYMELSSLRSEDTAVYYCAREGITTVATTYYWYFDVWGQGTTVTVSS VL: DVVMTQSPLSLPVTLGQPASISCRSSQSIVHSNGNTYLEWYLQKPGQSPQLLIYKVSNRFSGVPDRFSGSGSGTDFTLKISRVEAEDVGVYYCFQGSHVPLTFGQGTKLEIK
A. Criterion met

Q. Repeat with toripalimab Fab H.G100Y (Fab, V domains shown, heavy chain of Sm3 with this change; numbers count from the chain's first residue; as the light chain of Sm3; source: Brevibacillus, culture supernatant (ammonium sulfate precipitate); not shown: 6xHis, C-terminal, kept; 6xHN, C-terminal, kept) VH: QGQLVQSGAEVKKPGASVKVSCKASGYTFTDYEMHWVRQAPIHGLEWIGVIESETGGTAYNQKFKGRVTITADKSTSTAYMELSSLRSEDTAVYYCAREYITTVATTYYWYFDVWGQGTTVTVSS VL: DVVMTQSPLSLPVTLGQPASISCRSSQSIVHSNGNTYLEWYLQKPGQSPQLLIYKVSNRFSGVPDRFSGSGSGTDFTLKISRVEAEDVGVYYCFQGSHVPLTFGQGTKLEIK
A. Criterion met

Q. Repeat with toripalimab Fab H.T107Y (Fab, V domains shown, heavy chain of Sm3 with this change; numbers count from the chain's first residue; as the light chain of Sm3; source: Brevibacillus, culture supernatant (ammonium sulfate precipitate); not shown: 6xHis, C-terminal, kept; 6xHN, C-terminal, kept) VH: QGQLVQSGAEVKKPGASVKVSCKASGYTFTDYEMHWVRQAPIHGLEWIGVIESETGGTAYNQKFKGRVTITADKSTSTAYMELSSLRSEDTAVYYCAREGITTVATYYYWYFDVWGQGTTVTVSS VL: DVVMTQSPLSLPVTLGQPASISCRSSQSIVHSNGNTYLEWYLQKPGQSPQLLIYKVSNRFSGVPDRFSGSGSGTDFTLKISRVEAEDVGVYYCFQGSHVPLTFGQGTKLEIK
A. Criterion not met

Data credit: paper PMC10663500
